Assay: Dissociation constant against Erythromycin-Resistance Methylase AM
measurement-type: pKd
Here pKd is given on a logarithmic scale as minus log10 of the concentration in mol/L.

For CSc1nc(N)nc(N)n1 , what is its reported pKd?
3.00

----------
# collection of IC50 values tested on Acetylcholinesterase (Rattus norvegicus, UniProt P37136)
# Sequence (P37136 whole entry): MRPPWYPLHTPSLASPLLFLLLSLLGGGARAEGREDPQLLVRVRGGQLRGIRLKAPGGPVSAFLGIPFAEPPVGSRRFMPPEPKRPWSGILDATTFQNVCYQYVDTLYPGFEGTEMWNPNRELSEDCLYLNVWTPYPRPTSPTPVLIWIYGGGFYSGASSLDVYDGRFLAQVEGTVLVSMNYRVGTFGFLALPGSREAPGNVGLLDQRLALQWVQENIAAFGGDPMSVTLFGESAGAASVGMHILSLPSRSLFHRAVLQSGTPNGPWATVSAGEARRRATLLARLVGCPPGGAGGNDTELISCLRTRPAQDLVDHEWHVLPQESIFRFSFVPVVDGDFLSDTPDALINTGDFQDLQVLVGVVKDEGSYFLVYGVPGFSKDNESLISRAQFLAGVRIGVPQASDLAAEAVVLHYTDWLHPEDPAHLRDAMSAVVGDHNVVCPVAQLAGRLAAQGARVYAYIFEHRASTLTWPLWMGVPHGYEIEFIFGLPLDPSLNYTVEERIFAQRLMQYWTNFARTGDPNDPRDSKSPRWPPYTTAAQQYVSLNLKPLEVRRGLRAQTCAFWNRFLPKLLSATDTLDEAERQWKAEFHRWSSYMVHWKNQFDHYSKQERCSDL
Your answer is read as nM, so omit the unit and give the number.

- molecule: "C1=CC2N=C3CCCCC3=C(NCCCCCCCNc3c4c(nc5ccccc35)CCCC4)C2C=C1 (configuration not stated)"
  IC50, nM: 0.4

# context switch: different molecule, same IC50
Fill in the recorded IC50 for this molecule, with Acetylcholinesterase (Rattus norvegicus, UniProt P37136) as test system: c1ccc(NCCCCCCCNc2c3c(nc4ccccc24)CCCC3)cc1
390

----------
Test: Binding affinity against Erythromycin-Resistance Methylase AM
measurement-type: Ki (µM)
Only the number, expressed in µM, is required.

What value of Ki has been recorded for this entry: Nc1nc(NC2Cc3ccccc3C2)nc(N2CCCCC2)n1
8

----------
Molecular target: Stromelysin-1 (Homo sapiens)
Sequence (P08254 whole entry): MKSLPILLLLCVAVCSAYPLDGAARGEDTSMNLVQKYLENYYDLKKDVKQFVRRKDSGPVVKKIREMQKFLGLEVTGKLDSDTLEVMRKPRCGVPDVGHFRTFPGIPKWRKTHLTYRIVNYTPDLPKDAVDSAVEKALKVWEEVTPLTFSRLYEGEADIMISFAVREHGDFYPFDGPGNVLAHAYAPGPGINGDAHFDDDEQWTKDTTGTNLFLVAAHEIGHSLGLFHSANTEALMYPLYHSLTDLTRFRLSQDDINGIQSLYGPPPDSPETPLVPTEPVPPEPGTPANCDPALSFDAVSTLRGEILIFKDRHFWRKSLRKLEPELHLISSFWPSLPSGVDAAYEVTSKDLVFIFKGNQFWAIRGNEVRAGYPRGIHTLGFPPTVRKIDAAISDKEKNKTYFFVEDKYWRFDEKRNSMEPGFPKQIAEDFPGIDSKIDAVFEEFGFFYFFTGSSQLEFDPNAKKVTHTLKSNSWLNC
measurement-type: pKd
Field pKd (float): negative decimal logarithm of the concentration in molar.

Param item = Oc1ccc(-c2ccccc2)cc1 ; retrieve measured pKd.
3.55

----------
Record: IC50 reported on Neuraminidase (Influenza A virus (A/Puerto Rico/8/1934(H1N1))).
Sequence (P03468 whole entry): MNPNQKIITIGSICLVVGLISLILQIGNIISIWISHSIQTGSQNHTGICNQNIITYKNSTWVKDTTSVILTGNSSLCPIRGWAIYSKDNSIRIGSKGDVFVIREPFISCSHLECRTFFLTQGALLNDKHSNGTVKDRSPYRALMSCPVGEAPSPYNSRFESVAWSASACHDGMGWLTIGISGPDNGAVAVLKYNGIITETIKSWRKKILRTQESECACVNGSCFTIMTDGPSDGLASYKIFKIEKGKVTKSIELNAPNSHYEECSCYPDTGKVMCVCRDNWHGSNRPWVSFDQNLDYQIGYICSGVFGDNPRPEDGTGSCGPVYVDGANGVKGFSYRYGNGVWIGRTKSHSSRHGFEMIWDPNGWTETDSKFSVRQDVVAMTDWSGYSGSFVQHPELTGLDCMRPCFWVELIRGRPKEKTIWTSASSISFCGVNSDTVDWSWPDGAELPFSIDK
Dear colleague, please return just the value in nM, with no unit written.

Sample records with IC50:
- line-notation: "CC(=O)N[C@H]1[C@H](N)C=C(C(=O)O)C[C@@H]1N"
  IC50 (nM): 31000
- line-notation: "CCC(CC)N[C@@H]1C=C(C(=O)O)C[C@H](N)[C@H]1NC(C)=O"
  IC50 (nM): 85

Now for the compound whose IC50 we want.
GET /values?readout=IC50&item= CC(=O)N[C@@H]1[C@@H](N)CC(C(=O)O)=C[C@H]1NCCCc1ccccc1
1640

----------
Biological target: Proto-oncogene tyrosine-protein kinase Src (Homo sapiens, UniProt P12931)
Sequence (P12931 2-536 limits assumed): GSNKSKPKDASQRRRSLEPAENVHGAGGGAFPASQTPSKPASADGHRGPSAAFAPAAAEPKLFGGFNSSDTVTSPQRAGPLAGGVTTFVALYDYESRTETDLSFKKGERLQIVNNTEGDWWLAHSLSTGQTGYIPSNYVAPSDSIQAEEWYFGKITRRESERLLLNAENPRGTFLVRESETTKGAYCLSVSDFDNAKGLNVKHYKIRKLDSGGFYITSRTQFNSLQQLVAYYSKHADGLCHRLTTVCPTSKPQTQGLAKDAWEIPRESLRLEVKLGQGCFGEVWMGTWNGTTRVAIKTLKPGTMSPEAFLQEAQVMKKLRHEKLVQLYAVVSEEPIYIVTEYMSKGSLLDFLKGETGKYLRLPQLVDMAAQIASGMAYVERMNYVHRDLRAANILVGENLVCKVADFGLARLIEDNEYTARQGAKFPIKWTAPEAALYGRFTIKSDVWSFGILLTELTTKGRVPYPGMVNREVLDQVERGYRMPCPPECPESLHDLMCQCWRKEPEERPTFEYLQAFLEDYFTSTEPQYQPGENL
measurement-type: IC50 (µM)
Your answer is read as µM, so omit the unit and give the number.

Report IC50 for CO/N=C/c1ccc(O)c(O)c1 tested on Proto-oncogene tyrosine-protein kinase Src (Homo sapiens, UniProt P12931).
41

----------
Tested on: Human papillomavirus
Assay: Inhibitory concentration against DNA-binding domain of the human papillomavirus protein E2
Type: functional
measurement-type: IC50 (µM)
I only need the number, in µM, no unit after it.

Below, each entry is followed by its recorded IC50 result.
- line-notation: "O=C(O)/C=C/C=C/c1ccc(Oc2ccccc2)cc1"
  IC50 / µM: 75
- line-notation: "O=C(O)c1ccc(-c2cc(Cl)cc(Cl)c2)cc1"
  IC50 / µM: 150

Lab note: next compound to report on.
Sample O=C(O)/C=C/C=C/c1cccc(Oc2cc(Cl)cc(Cl)c2)c1 — what was its IC50?
10

----------
Experiment: Half life was determined
Type: ADME
Conditions: rat
measurement-type: half-life (h)
Report as a plain number; the unit h is understood.

What value of half-life has been reported for the following compound? CC(=O)N1CCN(C(=O)/C=C/c2ccc(Sc3ccc4[nH]ccc4c3)c(Cl)c2)CC1
4.7

----------
Target: Thymidylate synthase (Homo sapiens, UniProt P04818)
Sequence (P04818 whole entry): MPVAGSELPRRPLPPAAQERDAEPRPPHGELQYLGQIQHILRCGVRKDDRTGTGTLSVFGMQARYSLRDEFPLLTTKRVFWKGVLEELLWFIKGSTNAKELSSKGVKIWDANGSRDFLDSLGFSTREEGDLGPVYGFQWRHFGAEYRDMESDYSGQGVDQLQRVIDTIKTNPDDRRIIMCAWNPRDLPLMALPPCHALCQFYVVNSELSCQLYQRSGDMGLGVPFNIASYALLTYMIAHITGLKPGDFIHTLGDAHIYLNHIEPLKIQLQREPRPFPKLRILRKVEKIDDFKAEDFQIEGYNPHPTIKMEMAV
measurement-type: pKi
Kindly note that pKi refers to -log10 of the concentration in mol/L and answer with the value alone.

Please provide the recorded pKi for Cc1ccc(S(=O)(=O)N2CCC[C@@H]2C(=O)O)cc1 , tested on Thymidylate synthase (Homo sapiens, UniProt P04818).
2.96
